Here, each record is paired with measured MIC data.
System: Staphylococcus aureus
Assay: Antibacterial activity against Staphylococcus aureus ATCC 13709 in cation adjusted Mueller-Hinton broth by […] assay
Format: functional
metric-name: MIC (µg/mL)

CC(C)C[C@H](C(=O)N[C@H]1C(=O)N[C@@H](CC(N)=O)C(=O)N[C@H]2C(=O)N[C@H]3C(=O)N[C@H](C(=O)N[C@H](C(=O)O)c4cc(O)cc(O)c4-c4cc3ccc4O)[C@H](O[C@H]3C[C@](C)(N)[C@@H](O)[C@H](C)O3)c3cc(Cl)c(c(Cl)c3)Oc3cc2cc(c3O[C@H]2O[C@@H](CO)[C@@H](O)[C@H](O)[C@H]2O[C@@H]2C[C@@](C)(NCc3ccc(-c4ccc(Cl)cc4)cc3)[C@@H](O)[C@@H](C)O2)Oc2ccc(cc2Cl)[C@H]1O)N(C)C(=O)CC(P(=O)(O)O)P(=O)(O)O: 32
CC(C)C[C@H](C(=O)N[C@H]1C(=O)N[C@@H](CC(N)=O)C(=O)N[C@H]2C(=O)N[C@H]3C(=O)N[C@H](C(=O)N[C@H](C(=O)O)c4cc(O)cc(O)c4-c4cc3ccc4O)[C@H](O[C@H]3C[C@](C)(N)[C@@H](O)[C@H](C)O3)c3cc(Cl)c(c(Cl)c3)Oc3cc2cc(c3O[C@H]2O[C@@H](CO)[C@@H](O)[C@H](O)[C@H]2O[C@@H]2C[C@@](C)(NCc3ccc(-c4ccc(Cl)cc4)cc3)[C@@H](O)[C@@H](C)O2)Oc2ccc(cc2Cl)[C@H]1O)N(C)C(=O)OCOC(=O)CCC(P(=O)(O)O)P(=O)(O)O: 8

----------
Tested on: Staphylococcus aureus
Assay: Antibacterial activity against Staphylococcus aureus ATCC 13709 in cation adjusted Mueller-Hinton broth by […] assay in presence of 50% human serum
Format: functional
metric-name: MIC

CC(C)C[C@H](C(=O)N[C@H]1C(=O)N[C@@H](CC(N)=O)C(=O)N[C@H]2C(=O)N[C@H]3C(=O)N[C@H](C(=O)N[C@H](C(=O)O)c4cc(O)cc(O)c4-c4cc3ccc4O)[C@H](O[C@H]3C[C@](C)(N)[C@@H](O)[C@H](C)O3)c3cc(Cl)c(c(Cl)c3)Oc3cc2cc(c3O[C@H]2O[C@@H](CO)[C@@H](O)[C@H](O)[C@H]2O[C@@H]2C[C@@](C)(NCc3ccc(-c4ccc(Cl)cc4)cc3)[C@@H](O)[C@@H](C)O2)Oc2ccc(cc2Cl)[C@H]1O)N(C)C(=O)OCOC(=O)CCCC(P(=O)(O)O)P(=O)(O)O: > 32 µg/mL

----------
Tested on: Staphylococcus aureus
Assay: Antibacterial activity against Staphylococcus aureus ATCC 13709 in cation adjusted Mueller-Hinton broth by […] assay in presence of 50% human serum
Type: functional
metric-name: MIC

CN[C@H](CC(C)C)C(=O)N[C@H]1C(=O)N[C@@H](CC(N)=O)C(=O)N[C@H]2C(=O)N[C@H]3C(=O)N[C@H](C(=O)N[C@H](C(=O)OCC(=O)Nc4ccc(CC(P(=O)(O)O)P(=O)(O)O)cc4)c4cc(O)cc(O)c4-c4cc3ccc4O)[C@H](O)c3cc(Cl)c(c(Cl)c3)Oc3cc2cc(c3O[C@H]2O[C@@H](CO)[C@@H](O)[C@H](O)[C@H]2O[C@@H]2C[C@@](C)(N)[C@@H](O)[C@@H](C)O2)Oc2ccc(cc2Cl)[C@H]1O: 16 µg/mL
CC(C)C[C@H](C(=O)N[C@H]1C(=O)N[C@@H](CC(N)=O)C(=O)N[C@H]2C(=O)N[C@H]3C(=O)N[C@H](C(=O)N[C@H](C(=O)O)c4cc(O)cc(O)c4-c4cc3ccc4O)[C@H](O[C@H]3C[C@](C)(N)[C@@H](O)[C@H](C)O3)c3cc(Cl)c(c(Cl)c3)Oc3cc2cc(c3O[C@H]2O[C@@H](CO)[C@@H](O)[C@H](O)[C@H]2O[C@@H]2C[C@@](C)(NCc3ccc(-c4ccc(Cl)cc4)cc3)[C@@H](O)[C@@H](C)O2)Oc2ccc(cc2Cl)[C@H]1O)N(C)C(=O)OCOC(=O)CCC(P(=O)(O)O)P(=O)(O)O: 4 µg/mL
CC(C)C[C@H](C(=O)N[C@H]1C(=O)N[C@@H](CC(N)=O)C(=O)N[C@H]2C(=O)N[C@H]3C(=O)N[C@H](C(=O)N[C@H](C(=O)O)c4cc(O)cc(O)c4-c4cc3ccc4O)[C@H](O[C@H]3C[C@](C)(N)[C@@H](O)[C@H](C)O3)c3cc(Cl)c(c(Cl)c3)Oc3cc2cc(c3O[C@H]2O[C@@H](CO)[C@@H](O)[C@H](O)[C@H]2O[C@@H]2C[C@@](C)(NCc3ccc(-c4ccc(Cl)cc4)cc3)[C@@H](O)[C@@H](C)O2)Oc2ccc(cc2Cl)[C@H]1O)N(C)C(=O)CC(P(=O)(O)O)P(=O)(O)O: 32 µg/mL
CN[C@H](CC(C)C)C(=O)N[C@H]1C(=O)N[C@@H](CC(N)=O)C(=O)N[C@H]2C(=O)N[C@H]3C(=O)N[C@H](C(=O)N[C@H](C(=O)OCC(=O)NC(P(=O)(O)O)P(=O)(O)O)c4cc(O)cc(O)c4-c4cc3ccc4O)[C@H](O[C@H]3C[C@](C)(N)[C@@H](O)[C@H](C)O3)c3cc(Cl)c(c(Cl)c3)Oc3cc2cc(c3O[C@H]2O[C@@H](CO)[C@@H](O)[C@H](O)[C@H]2O[C@@H]2C[C@@](C)(NCc3ccc(-c4ccc(Cl)cc4)cc3)[C@@H](O)[C@@H](C)O2)Oc2ccc(cc2Cl)[C@H]1O: 32 µg/mL
